meta.source: patent US11708344B2

System: HBeAg (surrogate marker for cccDNA) in HepDES19 cells
Assay: Engineered HepDES19 primary screen assay (HBeAg ELISA)
Format: cell-based, HBV
Settings: HepDES19 cells, 5 days compound incubation, HBeAg ELISA; read-out: IC50 (HBeAg level, HepDES19 primary screen assay)
pIC50: −log10 of the molar value.
MEASUREMENT_NAME: pIC50

O=c1cc(-c2ccc(Br)cc2OCCO[C@H]2C[C@H](C(=O)O)C2)oc2c(Cl)ccc(C(F)(F)F)c12 | 6.99

###

Test: Human microsome stability assay
Assay type: in vitro ADME
Details: human liver microsomes, 1 μM test compound, 0.5 mg/mL microsomal protein, 37° C., pH 7.4, 0-30 minutes
MEASUREMENT_NAME: Clearance of Human microsome

O=C(O)[C@@H]1C[C@@H](Oc2cc(C(F)(F)F)ccc2-c2cc(=O)c3cccc(Cl)c3o2)CN1S(=O)(=O)C1CC1 [Example B077] | 6.15 mL/min/kg
O=C(O)[C@H]1CCN(C(=O)COCCOc2cc(Br)ccc2-c2cc(=O)c3cccc(Cl)c3o2)C1 [Example C112] | 6.15 mL/min/kg
O=C(O)[C@@H]1CC[C@@H](Oc2cc(Br)ccc2-c2cc(=O)c3cccc(Cl)c3o2)C1 (relative stereo) [Example B028-B] | 9.98 mL/min/kg
COc1cc(OCCO[C@H]2C[C@@H](C(=O)O)C2)c(-c2cc(=O)c3cccc(Cl)c3o2)cc1O [Example C083] | 6.15 mL/min/kg

###

Measured Clearance of Human microsome, listed per entry for reference.
Experiment: Human microsome stability assay
Type: in vitro ADME
Conditions: human liver microsomes, 1 μM test compound, 0.5 mg/mL microsomal protein, 37° C., pH 7.4, 0-30 minutes
MEASUREMENT_NAME: Clearance of Human microsome (mL/min/kg)

Cc1c(-c2ccc(C(F)(F)F)cc2OCCC(=O)O)oc2c(Cl)cccc2c1=O | 6.15
Cc1cc(F)c(-c2cc(=O)c3cccc(Cl)c3o2)c(OCCC(=O)O)c1 | 6.15
O=C(O)C1CCCN1C(=O)COc1cc(C(F)(F)F)ccc1-c1cc(=O)c2cccc(Cl)c2o1 (stereo in doubt) | 6.15
COc1cc(OCCO[C@H]2C[C@@H](C(=O)O)C2)c(-c2cc(=O)c3cccc(Cl)c3o2)cc1OCC1CC1 | 6.15
COc1cc(-c2cc(=O)c3cccc(Cl)c3o2)c(OCCO[C@H]2C[C@@H](C(=O)O)C2)cc1OCC1CC1 | 6.15
O=C(O)CCCOc1cc(C(F)(F)F)ccc1-c1cc(=O)c2cccc(Cl)c2o1 | 8.01
COc1cc(OCC2(CC(=O)O)CC2)c(-c2cc(=O)c3cccc(Cl)c3o2)cc1OC | 6.15
COc1cc(OCC(=O)O)c(-c2cc(=O)c3cccc(Cl)c3o2)cc1OC | 6.15
COc1cc(OCCCOCC(=O)O)c(-c2cc(=O)c3cccc(Cl)c3o2)cc1OC | 6.15
CCOc1cc(-c2cc(=O)c3cccc(Cl)c3o2)c(OCCO[C@H]2C[C@@H](C(=O)O)C2)cc1OC | 6.15
O=C(O)C1CCC(OCCCOc2cc(Br)ccc2-c2cc(=O)c3cccc(Cl)c3o2)C1 (stereo not shown) | 6.15
O=c1cc(-c2ccccc2O[C@H]2C[C@@H](C(=O)O)C2)oc2c(Br)cccc12 | 6.15
Cc1cc(-c2cc(=O)c3c(O)ccc(Cl)c3o2)c(O[C@H]2C[C@H](C(=O)O)C2)cc1Br | 6.29
Cc1cc(-c2cc(=O)c3cccc(Cl)c3o2)c(OCCOCC(=O)O)cc1Br | 7.66
COc1cc(OCCCC(=O)O)c(-c2cc(=O)c3cccc(Cl)c3o2)cc1C | 6.15
O=C(O)COCCOc1cc(Br)ccc1-c1cc(=O)c2cccc(Cl)c2o1 | 6.15

###

System: HBsAg in HBV-infected PHH
Experiment: Cryopreserved primary human hepatocytes (PHH) HBV infection assay, extracellular HBsAg (CLIA)
Assay type: cell-based
Conditions: Hepatitis B virus, Hepatocyte, 216 h, read-out: HBsAg IC50, Cryopreserved PHH infected with HBV, 9 days post-compound treatment, extracellular HBsAg
pIC50: −log10 of the molar value.
MEASUREMENT_NAME: pIC50

O=C(O)[C@@H]1C[C@H](Oc2cc(Br)ccc2-c2cc(=O)c3cccc(Cl)c3o2)CN1S(=O)(=O)c1ccccc1 [Example B082] | 5.32
COc1cc(OCCO[C@H]2C[C@@H](C(=O)O)C2)c(-c2cc(=O)c3cccc(Cl)c3o2)cc1OC(F)F [Example C086] | 5.26
COc1cc(OCCC(=O)O)c(-c2cc(=O)c3cccc(Cl)c3o2)cc1C [Example A012] | 5.68
CCc1ccc(-c2cc(=O)c3cccc(Cl)c3o2)c(O[C@H]2C[C@@H](C(=O)O)C2)c1 [Example B019-A] | 5.40
Cc1ccc(-c2cc(=O)c3cccc(Cl)c3o2)c(OCC(=O)O)c1 [Example A049] | 5.90
O=C(O)C1CC(OCCOc2cc(N3CCOC3=O)ccc2-c2cc(=O)c3cccc(Cl)c3o2)C1 (stereo not drawn) [Example C062] | 5.17
O=c1cc(-c2ccc(N3CCOCC3)cc2OCCO[C@H]2C[C@H](C(=O)O)C2)oc2c(Cl)cccc12 [Example C067-B] | 5.32
COc1cc(O[C@H]2C[C@H](C(=O)NS(C)(=O)=O)C2)c(-c2cc(=O)c3cccc(Cl)c3o2)cc1C [Example B050-B] | 5.02
COc1cc(-c2cc(=O)c3cccc(Cl)c3o2)c(OCCC(=O)O)cc1Cl [Example A008] | 6.02
O=c1cc(-c2cc(C(F)(F)F)c(Br)cc2O[C@H]2C[C@H](C(=O)O)C2)oc2c(Cl)cccc12 [Example B024] | 5.16
O=C(O)CCOc1cc(C(F)(F)F)ccc1-c1cc(=O)c2cccc(Cl)c2o1 [Example A001] | 5.92
O=c1cc(-c2ccccc2OCCO[C@H]2C[C@H](C(=O)O)C2)oc2c(Cl)cc(F)cc12 [Example C036-B] | 5.25
CCOc1cc(OCCO[C@H]2C[C@@H](C(=O)O)C2)c(-c2cc(=O)c3cccc(Cl)c3o2)cc1OC [Example C078] | 5.20
NC(=O)COCC(O)COc1cc(Br)ccc1-c1cc(=O)c2cccc(Cl)c2o1 (stereo not drawn) [Example C114] | 5.04
COc1cc(-c2cc(=O)c3cccc(Cl)c3o2)c(OCCO[C@H]2C[C@@H](C(=O)O)C2)cc1OCC(F)(F)F [Example C080] | 5.45
Cc1cc(-c2cc(=O)c3cccc(Cl)c3o2)c(OCCCOCC(=O)O)cc1Cl [Example C019] | 5.52
O=c1cc(-c2cc(F)ccc2OCCO[C@H]2C[C@H](C(=O)O)C2)oc2c(Cl)cccc12 [Example C033-B] | 5.36
O=c1cc(-c2ccc(OC(F)(F)F)cc2O[C@H]2C[C@@H](C(=O)O)C2)oc2c(Cl)cccc12 [Example B015-A] | 5.59
O=c1cc(-c2cc(C(F)(F)F)c(Br)cc2OCCO[C@H]2C[C@H](C(=O)O)C2)oc2c(Cl)cccc12 [Example C042-B] | 5.05
COc1cc(OCCO[C@H]2C[C@@H](C(=O)O)C2)c(-c2cc(=O)c3c(C(F)(F)F)ccc(Cl)c3o2)cc1OC [Example C096] | 5.11
Cc1ccc(-c2cc(=O)c3cccc(Cl)c3o2)c(O[C@H]2C[C@H](C(=O)NS(=O)(=O)C3CC3)C2)c1 [Example B052-B] | 5.10
CCNS(=O)(=O)N[C@@H](COc1cc(C(F)(F)F)ccc1-c1cc(=O)c2cccc(Cl)c2o1)C(=O)O [Example A099] | 6.85
O=c1cc(-c2ccc(Br)cc2OCCO[C@H]2C[C@@H](C(=O)O)C2)oc2c(Cl)ccc(C(F)(F)F)c12 [Example C049-A] | 5.14
Cc1cc(-c2cc(=O)c3cccc(Cl)c3o2)c(OCCC(=O)O)cc1Br [Example A006] | 5.97
COc1cc(OCCCC(=O)O)c(-c2cc(=O)c3cccc(Cl)c3o2)cc1OC [Example A056] | 5.04
O=C(O)CCOc1cc(OC(F)(F)F)c(Br)cc1-c1cc(=O)c2cccc(Cl)c2o1 [Example A016] | 6.08
O=c1cc(-c2ccc(C3CC3)cc2O[C@H]2C[C@@H](C(=O)O)C2)oc2c(Cl)cccc12 [Example B035-A] | 5.84
Cc1cc(-c2cc(=O)c3cccc(Cl)c3o2)c(OCCCC(=O)O)cc1Cl [Example A057] | 5.01
O=c1cc(-c2ccc(Br)cc2O[C@H]2C[C@@H](C(=O)O)C2)oc2c(Cl)ccc(O)c12 [Example B036-A] | 5.02
Cc1ccc(-c2cc(=O)c3cccc(Cl)c3o2)c(O[C@H]2C[C@H](C(=O)O)C2)c1 [Example B018-B] | 5.33
